Where do these numbers come from? They come from patent US11753404B2.

Measured GI50 of individual entries
Molecular target: BAF3 FL KIT EX11DEL (Homo sapiens, UniProt P10721, cells depend on it, form not given)
Construct: BAF3 FL KIT EX11DEL
Sequence (P10721 with tags, fused parts or gaps DEL557-558): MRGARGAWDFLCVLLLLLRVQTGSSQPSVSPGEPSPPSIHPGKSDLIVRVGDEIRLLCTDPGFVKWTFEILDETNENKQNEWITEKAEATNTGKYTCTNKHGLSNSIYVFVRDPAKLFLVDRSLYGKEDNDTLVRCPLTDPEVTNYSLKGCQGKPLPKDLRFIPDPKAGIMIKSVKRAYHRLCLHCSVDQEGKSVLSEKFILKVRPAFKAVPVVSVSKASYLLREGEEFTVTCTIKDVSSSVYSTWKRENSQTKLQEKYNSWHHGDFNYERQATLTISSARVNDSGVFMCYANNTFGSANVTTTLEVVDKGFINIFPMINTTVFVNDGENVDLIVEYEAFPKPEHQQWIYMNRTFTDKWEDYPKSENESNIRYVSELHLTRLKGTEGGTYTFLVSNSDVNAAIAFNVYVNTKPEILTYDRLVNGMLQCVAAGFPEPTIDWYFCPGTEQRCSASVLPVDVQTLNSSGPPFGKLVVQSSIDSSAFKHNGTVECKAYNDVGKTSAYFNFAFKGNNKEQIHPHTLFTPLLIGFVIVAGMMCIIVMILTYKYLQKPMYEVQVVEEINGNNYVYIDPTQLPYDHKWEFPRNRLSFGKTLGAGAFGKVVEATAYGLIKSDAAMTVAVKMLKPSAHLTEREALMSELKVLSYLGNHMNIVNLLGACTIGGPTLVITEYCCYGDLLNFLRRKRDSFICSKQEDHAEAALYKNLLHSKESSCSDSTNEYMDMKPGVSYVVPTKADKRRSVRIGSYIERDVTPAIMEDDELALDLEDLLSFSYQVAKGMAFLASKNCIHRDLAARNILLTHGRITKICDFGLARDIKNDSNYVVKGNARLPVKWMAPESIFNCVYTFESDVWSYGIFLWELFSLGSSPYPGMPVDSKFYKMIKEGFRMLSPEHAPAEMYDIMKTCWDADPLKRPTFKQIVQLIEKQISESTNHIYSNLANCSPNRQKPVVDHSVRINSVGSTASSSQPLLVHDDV
Experiment: c-Kit assay: Ba/F3 KIT mutant cell viability (Cell Titer-Glo, 72 hours)
Assay type: cell-based
Details: viability after 72 hours

Answered cases to consult:
{"columns": ["Compound", "GI50"],
 "data": [
  ["CC(=O)N1CCN(C(=O)Nc2ncc(C#Cc3cc(C(=O)Nc4cc(C(F)(F)F)ccn4)ccc3C)s2)CC1 [I-37]", "< 10 nM"],
  ["CCN(CC)CCN(C)C(=O)Nc1ncc(C#Cc2cc(NC(=O)c3cc(C(F)(F)F)ccn3)ccc2C)s1 [I-59]", "10 to 50 nM"],
  ["Cc1ccc(C(=O)Nc2cc(C(F)(F)F)ccn2)cc1C#Cc1cnc(NC(=O)NCc2ccncc2)s1 [I-26]", "10 to 50 nM"],
  ["Cc1ccc(C(=O)Nc2cc(C(F)(F)F)ccn2)cc1C#Cc1cnc(NC(=O)N(C)C2CN(C)C2)s1 [I-39]", "10 to 50 nM"],
  ["Cc1ccc(C(=O)Nc2cc(C(F)(F)F)ccn2)cc1C#Cc1cnc(NC(=O)NCCN(C)C)s1 [I-11]", "< 10 nM"],
  ["Cc1ccc(C(=O)Nc2cc(C(F)(F)F)ccn2)cc1C#Cc1cnc(NC(=O)NCCCN)s1 [I-36]", "< 10 nM"],
  ["COC(=O)Nc1ncc(C#Cc2cc(C(=O)Nc3cc(C(F)(F)F)ccn3)ccc2C)s1 [I-3]", "< 10 nM"]
]}

Please turn your attention to the following entry.
Q. Requested read-out: GI50. Entry: Cc1ccc(C(=O)Nc2cc(C(F)(F)F)ccn2)cc1C#Cc1cnc(NC(=O)N(C)CCN2CCCC2)s1 [I-19]
A. < 10 nM
